src = ChEMBL document CHEMBL3988442

Target or system: Sialic acid-binding Ig-like lectin 9 (Homo sapiens) (UniProt Q9Y336)
Sequence (Q9Y336 whole entry): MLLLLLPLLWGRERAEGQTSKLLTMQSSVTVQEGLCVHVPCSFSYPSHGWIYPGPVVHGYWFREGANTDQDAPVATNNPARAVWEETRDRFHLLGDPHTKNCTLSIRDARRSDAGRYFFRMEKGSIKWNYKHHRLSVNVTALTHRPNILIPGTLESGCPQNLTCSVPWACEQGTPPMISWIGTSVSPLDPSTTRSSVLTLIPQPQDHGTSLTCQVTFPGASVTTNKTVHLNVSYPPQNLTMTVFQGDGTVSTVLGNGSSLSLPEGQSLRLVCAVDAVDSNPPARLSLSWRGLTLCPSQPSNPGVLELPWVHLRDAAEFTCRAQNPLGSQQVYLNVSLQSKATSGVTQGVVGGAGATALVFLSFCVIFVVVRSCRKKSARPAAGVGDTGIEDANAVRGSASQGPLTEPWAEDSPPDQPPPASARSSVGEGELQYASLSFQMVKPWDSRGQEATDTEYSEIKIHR
Test description: Hs-Siglec9 ALPHAscreen SOP 20170721
Design: scale not given: direction of the effect not stated beside the values
Applied conditions: 10 µM
Measure: Percent Effect (%)
Give just the numeric value; % need not be written.

Reference set, count: 6
Molecule	Result units	Percent Effect
CO[C@@H]1CC[C@H]2[C@H]1OCCN2C(=O)COc1ccc(F)cc1	%	0.225
CCSc1cc(C(=O)NCc2ccccc2O)ccn1	%	-0.329
Cc1cc(C)n(CC2CCCN2Cc2c(C)noc2C)n1 (configuration not stated)	%	8.4
CCCNC(=O)CNc1cc(C(=O)N2CCSCC2)ccc1C	%	9.22
CCOC(=O)N1CCN(C(=O)CCn2ccc3c(OC)cccc32)CC1	%	2.66
Cc1nnc2n1CCN(Cc1csc(-c3ccc(F)cc3)n1)C2	%	4.19

// field: Percent Effect; key: CCn1cc(C(=O)N2CCCC(c3[nH]ncc3S(C)(=O)=O)C2)cn1 (configuration not stated) ; value = -0.292

// field: Percent Effect; key: CCn1c(NCc2ccco2)nc2c(C)nn(C)c2c1=O ; value = -6.91

// field: Percent Effect; key: CC(C)c1ncc2c(n1)CN(Cc1cccc(OCC(N)=O)c1)CC2 ; value = 10.8

----------
Species on record: Homo sapiens
Test description: To identify inhibition of the IFN signalling (Jak-Stat) pathway via expression of an eGFP reporter gene under the control of an IFN-stimulated response element (ISRE) containing MxA promoter.
Assay type: functional
Set-up: scale not given: direction of the effect not stated beside the values
Applied conditions: 30 µM
Measure: Percent Effect (%)
Give just the numeric value; % need not be written.

Compound	Percent Effect / %
Cc1cnc(Nc2nccnc2C2CCN(C)CC2)s1	10.5
CCc1nc(CN2CCCN(C(=O)CCSC)CC2)cs1	22.8
O=C(CCn1cccn1)N1C[C@@H]2CC[C@H](C1)N(Cc1ccccn1)C2=O	3.77
Cc1cc(CNc2cc(Cl)ccc2OCCS(C)(=O)=O)no1	-4.69
CC(C)C(=O)N1CCCC(c2cc(C(F)F)n3ncnc3n2)C1 (stereo not given)	18

// field: Percent Effect; key: CC(OCC1CC1)C(=O)N1CCCN(c2ncccc2C#N)CC1 (stereo not given) ; value = -5.09

// field: Percent Effect; key: CC(Cn1cccn1)NC(=O)NCc1cccs1 (stereo not given) ; value = 10.9

// field: Percent Effect; key: COc1cccc(-c2nccnc2C2CCN(C(C)=O)CC2)c1 ; value = -0.133

// field: Percent Effect; key: c1cnn(CC2CCCCN2Cc2cn3ccsc3n2)c1 (stereo not given) ; value = 15.8

// field: Percent Effect; key: Cc1n[nH]c(C2CN(C(=O)c3ccnc(C4CC4)n3)CCO2)n1 (stereo not given) ; value = -6.73

// field: Percent Effect; key: CNc1cncc(C2CCCN2C(=O)c2ccc3oc(C)cc3c2)n1 (stereo not given) ; value = -2.62

----------
Organism: Homo sapiens
Test description: To identify inhibition of the IFN signalling (Jak-Stat) pathway via expression of an eGFP reporter gene under the control of an IFN-stimulated response element (ISRE) containing MxA promoter.
Assay type: functional
Design: scale not given: direction of the effect not stated beside the values
Applied conditions: 30 µM
Measure: Percent Effect (%)
Give just the numeric value; % need not be written.

Reference set, count: 8
Compound	Percent Effect (%)
Cc1ncc2c(n1)CCN(Cc1nc3ccccc3o1)C2	-5.07
Cc1cnn(CC2CCCN2Cc2coc(-c3ccccc3)n2)c1 (stereo unspecified)	-7.46
Cc1cnn(CC2CCCN2Cc2coc(-c3cccs3)n2)c1 (stereo unspecified)	5.98
CN(C)C(=O)[C@@H]1CCO[C@@H]2CCN(Cc3ccc4c(c3)OCO4)C[C@@H]21	0.999
CC(NC(=O)N1CCN(CCc2ccccc2)CC1)c1nncn1C (stereo unspecified)	13.6
CS(=O)(=O)N1Cc2ccccc2C2(CCN(C(=O)c3ccno3)CC2)C1	9.88
CCn1cnnc1CNC(=O)N1CCN(c2nc(C)c(C)s2)CC1	-2.89
CCC(CC)C(=O)N1CCC2(C1)CN(c1ccccc1)C(=O)CN2C (stereo unspecified)	-19.6

// field: Percent Effect; key: Cn1ccnc1CN1CCC2(CC1)CC(NC(=O)c1ccccn1)CO2 (stereo unspecified) ; value = 0.302

// field: Percent Effect; key: O=C1N(Cc2ccc(F)c(F)c2)CCCC12CCN(C1CCSCC1)C2 (stereo unspecified) ; value = 3.27

// field: Percent Effect; key: O=C(O)c1cc(-c2cccnc2)cc(S(=O)(=O)N2CCCCCC2)c1 ; value = 8.29

// field: Percent Effect; key: CS(=O)(=O)c1ccc(NC(=O)N2CCc3sccc3C2)cn1 ; value = 63.4

// field: Percent Effect; key: CC(=O)NC1CCCN(C(=O)NCc2ccc(-c3ccn[nH]3)cc2)C1 (stereo unspecified) ; value = -12.3

// field: Percent Effect; key: Cc1nn(C)c(Cl)c1CNCc1cccnc1N1CCN(C)CC1 ; value = 4.03

// field: Percent Effect; key: CC(C)(C)c1cn2nc(N3CCCC3Cn3cncn3)sc2n1 (stereo unspecified) ; value = 12.8

// field: Percent Effect; key: Cc1nnc(NC(=O)CN2CCCC(Cn3cncn3)C2)s1 (stereo unspecified) ; value = -17.8

// field: Percent Effect; key: Cc1ccc2c(c1)CN(C(=O)c1ccccc1F)C(CN(C)C)CO2 (stereo unspecified) ; value = 0.0165

// field: Percent Effect; key: COc1ccc(C2CC(=O)Nc3c2nc2n3CCCC2)cc1OC (stereo unspecified) ; value = 30.7

// field: Percent Effect; key: CCOC(=O)CN1CCC(C(=O)c2cc(F)ccc2F)CC1 ; value = 2.26

// field: Percent Effect; key: CC(=O)N1CCCN(C(=O)NCc2ccccn2)CC1 ; value = 2.28

// field: Percent Effect; key: CCC(=O)N1CCC2(COCc3c(C)nc(N(C)C)nc32)C1 (stereo unspecified) ; value = 4.78

----------
System: Trypanosoma cruzi
Test description: Trypanosoma cruzi phosphomannomutase and mannose-1-phosphate guanylyltransferase assay
Type: functional
Design: scale not given: direction of the effect not stated beside the values
Applied conditions: 10 µM
Measure: Percent Effect (%)
Give just the numeric value; % need not be written.

Reference set, count: 4
Compound	Reading
CN1CC(=O)N(c2ccccc2)CC12CCN(CC1CC1)C2 (centres undefined)	-6.13
Cc1cc(CNc2cc(Cl)ccc2OCCS(C)(=O)=O)no1	7.42
Cc1cn2c(n1)CCC(NC(=O)c1cc(Br)cn1C)C2 (centres undefined)	-3.41
Cc1nsc(NC(=O)N2CCN(Cc3ccc(F)cc3)C(=O)C2)n1	-0.291

// field: Percent Effect; key: CCCOc1cc(C)ccc1NC(=O)NCCC(=O)N(C)C ; value = -3.33

// field: Percent Effect; key: COc1ccc(OCCNCCn2cccn2)cc1 ; value = -1.95

// field: Percent Effect; key: CSc1ccc(C(CN)N2CCc3sccc3C2)cc1 (centres undefined) ; value = 3.6

// field: Percent Effect; key: COc1ccc(C(C)N2CCN(Cc3nccn3C)CC2)cc1Cl (centres undefined) ; value = -1.87

// field: Percent Effect; key: COCc1nn(C(C)C)c2c1CCN(Cc1cccs1)C2 ; value = 0.198

// field: Percent Effect; key: CNC(=O)C1Cn2ccnc2C2(CCN(Cc3cccnc3)CC2)O1 (centres undefined) ; value = -0.684

// field: Percent Effect; key: Cc1nnc(NC(=O)NCc2cccnc2N(C)C)s1 ; value = 5.24

----------
Target or system: Arginase-2, mitochondrial (Homo sapiens) (UniProt P78540)
Sequence (P78540 whole entry): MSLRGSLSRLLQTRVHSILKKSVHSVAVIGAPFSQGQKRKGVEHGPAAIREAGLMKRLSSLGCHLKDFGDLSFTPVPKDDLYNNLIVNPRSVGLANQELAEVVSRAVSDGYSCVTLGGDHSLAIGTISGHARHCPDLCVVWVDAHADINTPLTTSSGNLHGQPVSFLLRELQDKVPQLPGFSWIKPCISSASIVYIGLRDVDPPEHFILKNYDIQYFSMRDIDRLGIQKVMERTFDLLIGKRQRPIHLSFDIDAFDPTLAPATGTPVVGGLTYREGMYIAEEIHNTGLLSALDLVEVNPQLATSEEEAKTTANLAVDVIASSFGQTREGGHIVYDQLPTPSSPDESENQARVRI
Test description: in vitro enzyme assay to detect the production of urea directly proportional to the activity of Arginase II; note: in the data most compounds retested in dose-response had high values
Format: functional
Design: scale not given: direction of the effect not stated beside the values
Applied conditions: 33.3 µM
Measure: Percent Effect

Compound	Measure	Reading
COC(=O)CCNC(=O)c1ccoc1CN1c2ccccc2CC1C (configuration not stated)	Percent Effect	-18.4%
Cc1nccnc1CN1CCC2(CCCN(C3CCOCC3)C2=O)C1 (configuration not stated)	Percent Effect	-2.79%
CN1CCOC(CNC(=O)CCCOCCc2ccccc2)C1 (configuration not stated)	Percent Effect	3.28%
COCC1CN(Cc2ccsc2)Cc2nn(C)cc21 (configuration not stated)	Percent Effect	2.83%
CCN(Cc1ccc2c(c1)OCCO2)C(=O)NC(C)Cn1ccnc1 (configuration not stated)	Percent Effect	3.56%
CCc1ccc(C(=O)N2CCCC(c3noc(CC)n3)C2)o1 (configuration not stated)	Percent Effect	0.21%
Cc1cc(C(=O)NCc2ccccn2)no1	Percent Effect	-3.21%
CCCNC(=O)NCc1cccnc1OC	Percent Effect	2.66%
COc1c(CNC2CCCOc3ccccc32)c(C)nn1C (configuration not stated)	Percent Effect	3.23%
Cc1ncc2c(n1)CN(Cc1nc3ccccc3o1)CC2	Percent Effect	-2.22%

// field: Percent Effect; key: O=C(C1CCOCC1)N1CC[C@H]2C[C@@H](c3ccncn3)O[C@@H]2C1 ; value = -6.48%

// field: Percent Effect; key: O=C(NCCN1CCCCC1)c1scnc1Cl ; value = 3.24%

// field: Percent Effect; key: CC(=O)NC1CCCN(C(=O)Nc2cnc3c(cnn3C(C)C)c2)C1 (configuration not stated) ; value = -1.29%

// field: Percent Effect; key: CC(C)n1cc(C(=O)N2Cc3ccccc3OC3(CCOCC3)C2)cn1 ; value = -9.05%

// field: Percent Effect; key: Cc1n[nH]c(=O)c2c(NC(=O)CN3CCCC(C(F)(F)F)C3)oc(C)c12 (configuration not stated) ; value = 0%

// field: Percent Effect; key: CSc1ccc(C(CN)N2CCc3sccc3C2)cc1 (configuration not stated) ; value = -5.92%

// field: Percent Effect; key: CC(C)NC(=O)N1CCC2(C1)CN(c1ccsc1)C(=O)CN2C (configuration not stated) ; value = 5.26%

// field: Percent Effect; key: Fc1cnc(N2CCC3(COCc4cnc(NCC5CC5)nc43)C2)nc1 (configuration not stated) ; value = 2.4%

// field: Percent Effect; key: Cc1cc(C)n(-c2cncc(N3CCN(C(=O)C(C)(C)C)CC3)n2)n1 ; value = -0.833%
